Measured %Inh, listed per entry.
System: PAK6;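 note: KINOMEscan kinase panel screen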
Conditions: concentration: 1 μM, replicates: in singlicate; n = 1
Expressed in %, but write only the number.

N#Cc1cnc2cc(-c3cnc(CNCCN4CCOCC4)s3)ccc2c1Nc1ccc(Oc2ccccc2)cc1 [GW664114]	10
Nc1ncc(-c2ccc3nccc(-c4ccncc4)c3c2)cc1S(=O)(=O)N1CCCCC1 [GSK1693850]	0
CN(c1ccc(NC(=O)Nc2cccc(Cl)c2)cc1)c1ccnc(N)n1.Cl [GW830707]	7

get_value(item= COc1cc(Nc2nccc(N3CCC(NS(=O)(=O)c4ccc(NC(C)=O)cc4)CC3)n2)cc(OC)c1OC [GSK1379825] , readout=%Inh) returns 5

Taken from paper PMC5540273.
